Source: PubChem BioAssay AID1745844

- Tested on: rodent lifetime carcinogenesis bioassay, tumor incidence TD50
- METHOD_SUMMARY: carcinogenic potency in animals, long-term in vivo studies, CPDB compilation (AID 1745844)
- EXPERIMENTAL_SETUP: rat; strain Fischer 344; females; in feed; site: kidney; lesion: transitional-cell carcinoma + transitional-cell papilloma; dosed 27 weeks; study length 104 weeks
MEASURED_PROPERTY: TD50

The recorded TD50 with rodent lifetime carcinogenesis bioassay, tumor incidence TD50 for COc1ccccc1[N+](=O)[O-] was 1240 mg/kg/day

* * *

- Test system: rodent lifetime carcinogenesis bioassay, tumor incidence TD50
- METHOD_SUMMARY: carcinogenic potency in animals, long-term in vivo studies, CPDB compilation (AID 1745844)
- EXPERIMENTAL_SETUP: rat; strain Fischer 344; males; in feed; site: palate + tongue; lesion: squamous-cell carcinoma + squamous-cell papilloma; dosed 12 weeks; study length 103 weeks
MEASURED_PROPERTY: TD50 (mg/kg/day)
Could you give me the number in mg/kg/day? Just the number is fine.

Per the records, this compound ( OCC(CO)(CBr)CBr ) has TD50 equal to 24

* * *

- Test system: rodent lifetime carcinogenesis bioassay, tumor incidence TD50
- METHOD_SUMMARY: carcinogenic potency in animals, long-term in vivo studies, CPDB compilation (AID 1745844)
- EXPERIMENTAL_SETUP: mouse; strain Swiss albino; females; in drinking water; site: lung; lesion: adenocarcinoma; dosed 80 weeks; study length 80 weeks
MEASURED_PROPERTY: TD50 (mg/kg/day)
Could you give me the number in mg/kg/day? Just the number is fine.

Per the records, this compound ( NNC(=O)c1ccncc1 ) has TD50 equal to 435

* * *

- Test system: rodent lifetime carcinogenesis bioassay, tumor incidence TD50
- METHOD_SUMMARY: carcinogenic potency in animals, long-term in vivo studies, CPDB compilation (AID 1745844)
- EXPERIMENTAL_SETUP: rat; strain MRC; males; by gavage; site: urethra; lesion: papilloma; dosed 72 weeks; study length 80 weeks
MEASURED_PROPERTY: TD50

The recorded TD50 with rodent lifetime carcinogenesis bioassay, tumor incidence TD50 for CC(=O)CN(CC(C)=O)N=O was 0.878 mg/kg/day

* * *

- Tested on: rodent lifetime carcinogenesis bioassay, tumor incidence TD50
- METHOD_SUMMARY: carcinogenic potency in animals, long-term in vivo studies, CPDB compilation (AID 1745844)
- EXPERIMENTAL_SETUP: rat; strain Fischer 344; males; in drinking water; site: pharynx + tongue; lesion: squamous-cell papilloma; dosed 104 weeks; study length 104 weeks
MEASURED_PROPERTY: TD50

Per the records, this molecule ( Cc1ccc(S(=O)(=O)Oc2ccc(N=Nc3ccc(-c4ccc(N=Nc5c(O)ccc6cc(S(=O)(=O)O)cc(S(=O)(=O)O)c56)c(C)c4)cc3C)cc2)cc1 ) has TD50 equal to 71 mg/kg/day

* * *

Exercise: state measured TD50 for each of the compounds provided.
- Tested on: rodent lifetime carcinogenesis bioassay, tumor incidence TD50
- METHOD_SUMMARY: carcinogenic potency in animals, long-term in vivo studies, CPDB compilation (AID 1745844)
- EXPERIMENTAL_SETUP: rat; strain Fischer 344; females; by gavage; site: lung; lesion: several types; types named in the paper; dosed 50 weeks; study length 104 weeks

Per the records, this compound ( CCCCCN(N=O)C(N)=O ) has TD50 equal to 1.09 mg/kg/day

Per the records, this compound ( CCCCCCN(N=O)C(N)=O ) has TD50 equal to 2.06 mg/kg/day
